system: Veronica persica (VERPE); test: C. Herbicidal pre-emergence efficacy, VERPE; type: in vivo; conditions: 80 g/ha, scored after about 3 weeks

{"molecularString": "O=S(=O)(CCCC(F)(F)F)Oc1ccccc1Oc1ncc(Cl)cn1", "Pre-emergence efficacy against VERPE, %": 100}
{"molecularString": "CC(C)CCS(=O)(=O)Oc1ccccc1Oc1ncc(Cl)cn1", "Pre-emergence efficacy against VERPE, %": 80}
{"molecularString": "Cc1cccc(Oc2ncc(Cl)cn2)c1OS(=O)(=O)CCCCl", "Pre-emergence efficacy against VERPE, %": 100}
{"molecularString": "O=S(=O)(CCC(F)(F)F)Oc1c(Cl)cccc1Oc1ncc(Cl)cn1", "Pre-emergence efficacy against VERPE, %": 100}
{"molecularString": "O=S(=O)(CCCCl)Oc1c(F)cccc1Oc1ncc(Cl)cn1", "Pre-emergence efficacy against VERPE, %": 100}
{"molecularString": "O=S(=O)(CCC(F)(F)F)Oc1c(F)cccc1Oc1ncc(Br)cn1", "Pre-emergence efficacy against VERPE, %": 100}
{"molecularString": "Cc1cccc(Oc2ncc(Cl)cn2)c1OS(=O)(=O)CC1CC(F)(F)C1", "Pre-emergence efficacy against VERPE, %": 80}
{"molecularString": "O=S(=O)(CCCC(F)(F)F)Oc1c(F)cccc1Oc1ncc(F)cn1", "Pre-emergence efficacy against VERPE, %": 100}
